Hey, just so you know, these numbers are from ChEMBL document CHEMBL1147012.

Target: Tubulin
Assay: Inhibition of microtubule polymerization
# IC50 listing for each entry below
Give your result in µM as a bare value.

>>> reading("COc1cc2c(c(OC)c1OC)-c1ccc(OC)c(=O)cc1[C@@H](/N=C(/C)S)CC2")
2.2
>>> reading("COc1cc2c(c(OC)c1OC)-c1ccc(OC)c(=O)cc1[C@@H](Nc1ccc([N+](=O)[O-])cc1[N+](=O)[O-])CC2")
4.6
>>> reading("COc1cc2c(c(OC)c1OC)-c1ccc(=O)c(OC)cc1[C@@H](NS(=O)(=O)c1ccccc1[N+](=O)[O-])CC2")
58
>>> reading("COc1cc2c(c(OC)c1OC)-c1ccc(=O)c(OC)cc1[C@@H](NCC(C)=O)CC2")
68
>>> reading("COc1cc2c(c(OC)c1OC)-c1ccc(=O)c(OC)cc1[C@@H](NS(=O)(=O)c1ccc([N+](=O)[O-])cc1[N+](=O)[O-])CC2")
59
>>> reading("COc1cc2c(c(OC)c1OC)-c1ccc(OC)c(=O)cc1[C@@H](NS(=O)(=O)c1ccccc1[N+](=O)[O-])CC2")
5.6

Next, consider the following molecule.
Problem: Jot down IC50 (Tubulin) of `COc1cc2c(c(OC)c1OC)-c1ccc(OC)c(=O)cc1[C@@H](NS(=O)(=O)c1ccc([N+](=O)[O-])cc1[N+](=O)[O-])CC2` .
Solution: 9.7
